- Tested on: Plasmodium berghei
- experimentDescription: Luciferase/luciferin-expressing antifolate-resistant parasites were used to infect a culture of HepG2 cells that were pre-incubated with compounds. Infected hepatocytes emit light due to the luciferase reaction. Assay results are presented as the percent inhibition of light emission compared to control. […]
- Assay type: functional
- statedConditions: sporozoite, HEPG2TOX_HILL_SLOPE 2.22, HEPG2TOX_R_SQUARED 0.955, PBLUC_HILL_SLOPE 5.03, PBLUC_R_SQUARED 0.612, read-out: LUCIFERASE INFECTION ASSAY - IC50
outcomeMeasure: pIC50
Reminder that pIC50 is minus the log10 of a molar concentration.

Q) Name the recorded pIC50 for OCc1ccc(-c2cn3c(-c4ccc5ncccc5c4)cnc3cn2)cc1 .
A) 5.65
